This collection of values is drawn from patent US20060116390A1.

Reported values of IC50 for individual entries
# System: HCV proteins in Rep5.1 cells (replicon cell line)
# TEST_METHOD_NOTES: Inhibitory activity of HCV: cell-based ELISA in replicon cell line Rep5.1 (decrease of HCV proteins)
# Parameters: species or system hepatitis C virus
# COND: Hepatitis C virus, 72 h, Rep5.1 cells, 72 hours with drug, decrease of HCV proteins measured by HCV antibody; Table 1; read-out: Level (IC50 values classified)
# Procedure: In order to, screen and evaluate the anti-HCV therapeutic agents in cell level, the following experiments are carried out using a replicon cell line, Rep5.1 [Lohmann, et al., Replication of subgenomic hepatitis C virus RNAs in a hepatoma cell line. […] Rep5.1 cells, the replicon cell line, are cultured in DMEM-10 containing 500 μg/ml of G418. […] After 72 hours, the remaining cells are fixed by methanol/acetone (50/50, v/v), and the decrease of HCV proteins is measured by using HCV antibody. […]
QUANTITY_KIND: IC50

> print(dat)
                                   compound  quantity.kind       result.value
1    CC1=C(C(=O)O[C@H](C)c2ccccc2)CNC(=S)N1           IC50   1000 to 10000 nM
2  CC1=C(C(=O)OCCc2ccc(F)cc2Cl)C(CF)NC(=S)N1 (centres unmarked)           IC50          < 1000 nM
3  CC1=C(C(=O)OCc2ccc(OCc3ccccc3)cc2)CNC(=S)N1           IC50          < 1000 nM
4  CC1=C(C(=O)OCc2ccccc2)C(CF)NC(=S)N1 (centres unmarked)           IC50  10000 to 20000 nM
5  CCc1ccc(CCOC(=O)C2=C(C)NC(=S)NC2CO)cc1F (centres unmarked)           IC50          < 1000 nM
